Where do the numbers come from? From patent US9096601B2.

- System Under Test: FLT3 (Homo sapiens (Human), UniProt P36888)
- Sequence (P36888 27-993): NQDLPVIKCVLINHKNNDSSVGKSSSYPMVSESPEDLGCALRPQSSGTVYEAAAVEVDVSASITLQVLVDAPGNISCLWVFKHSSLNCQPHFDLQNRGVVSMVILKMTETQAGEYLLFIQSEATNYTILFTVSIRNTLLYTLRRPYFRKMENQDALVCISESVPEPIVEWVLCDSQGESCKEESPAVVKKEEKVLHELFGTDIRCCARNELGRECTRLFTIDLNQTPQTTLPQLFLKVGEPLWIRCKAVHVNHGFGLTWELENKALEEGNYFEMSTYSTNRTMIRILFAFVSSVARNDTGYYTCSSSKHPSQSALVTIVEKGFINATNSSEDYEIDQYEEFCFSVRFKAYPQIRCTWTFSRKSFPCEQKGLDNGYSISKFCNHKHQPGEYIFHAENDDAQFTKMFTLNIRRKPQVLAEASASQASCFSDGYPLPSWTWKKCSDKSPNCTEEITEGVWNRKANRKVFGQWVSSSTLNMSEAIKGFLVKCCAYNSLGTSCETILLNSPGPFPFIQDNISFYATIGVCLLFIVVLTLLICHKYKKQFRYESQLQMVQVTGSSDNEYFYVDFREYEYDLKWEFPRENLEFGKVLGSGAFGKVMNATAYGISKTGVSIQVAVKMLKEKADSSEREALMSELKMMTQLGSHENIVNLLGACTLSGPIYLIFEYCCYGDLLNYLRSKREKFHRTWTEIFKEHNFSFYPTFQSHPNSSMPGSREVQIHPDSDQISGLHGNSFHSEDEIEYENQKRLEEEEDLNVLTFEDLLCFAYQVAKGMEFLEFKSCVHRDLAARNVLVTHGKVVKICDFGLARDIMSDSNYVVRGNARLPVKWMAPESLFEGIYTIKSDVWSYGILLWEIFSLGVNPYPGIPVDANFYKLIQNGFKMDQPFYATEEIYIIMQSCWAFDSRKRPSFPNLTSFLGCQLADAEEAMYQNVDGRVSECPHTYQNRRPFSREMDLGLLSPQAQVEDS
- Assay Text: Kinase inhibitory activity, isotopic labeling (γ-33P-ATP)
- Type: biochemical
- Run Conditions: compound at 10 μM
# The kinase activity inhibitory rate (%) by the tested compounds at 10 μM FLT3 annotations
Reply with just the number (in %).

Some solved entries appear below for comparison.
                                     smiles  reported_value
0  CC(C)n1c(Nc2ccc(C(F)(F)F)cc2)nc2cnc(Nc3ccc(N4CCN(C)CC4)cc3)nc21              83
1  CC(C)n1c(Nc2cccc(C(F)(F)F)c2)nc2cnc(Nc3ccc(N4CCN(C)CC4)cc3)nc21              45
2  CC(C)n1c(Nc2ccc(F)c(Cl)c2)nc2cnc(Nc3ccc(C(=O)NN4CCN(C)CC4)cc3)nc21              78
3  COc1cccc(Nc2nc3cnc(Nc4ccc(N5CCN(C)CC5)cc4)nc3n2C(C)C)c1              86
4  CC(C)n1c(Nc2ccccc2)nc2cnc(Nc3ccc(C(=O)NN4CCN(C)CC4)cc3)nc21              85
5  CC(C)n1c(Nc2ccc(OCc3cccc(F)c3)c(Cl)c2)nc2cnc(Nc3ccc(N4CCN(C)CC4)cc3)nc21              43

With those in mind, consider the next compound.
The reported value for "CC(C)n1c(Nc2ccccc2)nc2cnc(Nc3ccc(C(=O)NC4CCN(C)CC4)cc3)nc21" in terms of The kinase activity inhibitory rate (%) by the tested compounds at 10 μM FLT3 is 76

----------
Quick reference: The kinase activity inhibitory rate (%) by the tested compounds at 10 μM MET of the listed items.
- System Under Test: MET (Homo sapiens (Human))
- Sequence (P08581 25-1390): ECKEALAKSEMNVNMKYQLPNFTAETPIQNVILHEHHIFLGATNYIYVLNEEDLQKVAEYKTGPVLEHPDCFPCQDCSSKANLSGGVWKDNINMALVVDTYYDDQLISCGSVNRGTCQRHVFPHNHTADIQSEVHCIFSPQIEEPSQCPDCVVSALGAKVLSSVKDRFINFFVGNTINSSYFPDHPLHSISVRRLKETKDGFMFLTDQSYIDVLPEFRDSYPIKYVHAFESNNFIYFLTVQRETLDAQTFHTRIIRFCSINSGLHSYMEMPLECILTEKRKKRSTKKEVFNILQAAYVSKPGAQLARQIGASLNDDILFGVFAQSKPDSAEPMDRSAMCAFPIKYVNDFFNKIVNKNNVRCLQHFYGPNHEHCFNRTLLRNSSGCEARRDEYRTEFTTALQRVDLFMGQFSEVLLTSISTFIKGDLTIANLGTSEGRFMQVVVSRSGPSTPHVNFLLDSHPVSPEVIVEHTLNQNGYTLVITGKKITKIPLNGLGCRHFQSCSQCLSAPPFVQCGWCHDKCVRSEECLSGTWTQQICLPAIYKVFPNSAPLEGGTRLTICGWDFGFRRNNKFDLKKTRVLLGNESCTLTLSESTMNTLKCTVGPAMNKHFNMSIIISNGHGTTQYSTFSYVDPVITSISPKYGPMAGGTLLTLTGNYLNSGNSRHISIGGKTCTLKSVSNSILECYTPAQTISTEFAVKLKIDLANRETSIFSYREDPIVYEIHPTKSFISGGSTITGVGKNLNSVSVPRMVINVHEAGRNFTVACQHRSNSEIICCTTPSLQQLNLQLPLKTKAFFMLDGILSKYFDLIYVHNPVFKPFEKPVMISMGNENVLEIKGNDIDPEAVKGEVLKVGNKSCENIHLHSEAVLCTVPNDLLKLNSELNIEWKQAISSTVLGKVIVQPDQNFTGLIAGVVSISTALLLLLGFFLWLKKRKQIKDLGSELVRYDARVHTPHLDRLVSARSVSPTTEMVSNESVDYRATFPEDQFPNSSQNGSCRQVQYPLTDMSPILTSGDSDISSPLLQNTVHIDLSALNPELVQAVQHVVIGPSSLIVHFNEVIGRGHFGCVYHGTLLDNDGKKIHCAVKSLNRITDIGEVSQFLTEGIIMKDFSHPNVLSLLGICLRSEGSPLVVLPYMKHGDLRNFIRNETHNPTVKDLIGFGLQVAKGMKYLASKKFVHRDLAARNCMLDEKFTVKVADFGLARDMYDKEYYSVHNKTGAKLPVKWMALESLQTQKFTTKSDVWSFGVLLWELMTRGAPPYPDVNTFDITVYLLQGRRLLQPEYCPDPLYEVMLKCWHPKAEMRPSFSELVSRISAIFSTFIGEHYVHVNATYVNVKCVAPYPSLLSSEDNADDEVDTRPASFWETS
- Assay Text: Kinase inhibitory activity, isotopic labeling (γ-33P-ATP)
- Format: biochemical
- Run Conditions: compound at 10 μM
Write the number in % without appending the unit.

                                     smiles  reported_value
0  CC(C)n1c(Nc2ccccc2)nc2cnc(Nc3ccc(C(=O)NC4CCN(C)CC4)cc3)nc21              67
1  CC(C)n1c(Nc2ccc(F)c(Cl)c2)nc2cnc(Nc3ccc(C(=O)NN4CCN(C)CC4)cc3)nc21             100
2  C=CC(=O)Nc1cccc(Nc2ncc3nc(Nc4ccccc4)n(C(C)C)c3n2)c1              74
3  CN1CCN(c2ccc(Nc3ncc4nc(Nc5ccccc5)n(C5CCCC5)c4n3)cc2)CC1              86
4  CC(C)n1c(Nc2ccccc2)nc2cnc(Nc3ccc(N4CCN(C)CC4)cc3)nc21              64

GET /value?item= "CC(C)n1c(Nc2ccc(C(F)(F)F)cc2)nc2cnc(Nc3ccc(N4CCN(C)CC4)cc3)nc21" &field=The kinase activity inhibitory rate (%) by the tested compounds at 10 μM MET returns 36

For this compound ( "CC(C)n1c(Nc2ccc(Br)cc2)nc2cnc(Nc3ccc(N4CCN(C)CC4)cc3)nc21" ), measured The kinase activity inhibitory rate (%) by the tested compounds at 10 μM MET is 45

----------
The kinase activity inhibitory rate (%) by the tested compounds at 10 μM ALK for assorted molecules
- System Under Test: ALK (Homo sapiens (Human))
- Sequence (Q9UM73 19-1620): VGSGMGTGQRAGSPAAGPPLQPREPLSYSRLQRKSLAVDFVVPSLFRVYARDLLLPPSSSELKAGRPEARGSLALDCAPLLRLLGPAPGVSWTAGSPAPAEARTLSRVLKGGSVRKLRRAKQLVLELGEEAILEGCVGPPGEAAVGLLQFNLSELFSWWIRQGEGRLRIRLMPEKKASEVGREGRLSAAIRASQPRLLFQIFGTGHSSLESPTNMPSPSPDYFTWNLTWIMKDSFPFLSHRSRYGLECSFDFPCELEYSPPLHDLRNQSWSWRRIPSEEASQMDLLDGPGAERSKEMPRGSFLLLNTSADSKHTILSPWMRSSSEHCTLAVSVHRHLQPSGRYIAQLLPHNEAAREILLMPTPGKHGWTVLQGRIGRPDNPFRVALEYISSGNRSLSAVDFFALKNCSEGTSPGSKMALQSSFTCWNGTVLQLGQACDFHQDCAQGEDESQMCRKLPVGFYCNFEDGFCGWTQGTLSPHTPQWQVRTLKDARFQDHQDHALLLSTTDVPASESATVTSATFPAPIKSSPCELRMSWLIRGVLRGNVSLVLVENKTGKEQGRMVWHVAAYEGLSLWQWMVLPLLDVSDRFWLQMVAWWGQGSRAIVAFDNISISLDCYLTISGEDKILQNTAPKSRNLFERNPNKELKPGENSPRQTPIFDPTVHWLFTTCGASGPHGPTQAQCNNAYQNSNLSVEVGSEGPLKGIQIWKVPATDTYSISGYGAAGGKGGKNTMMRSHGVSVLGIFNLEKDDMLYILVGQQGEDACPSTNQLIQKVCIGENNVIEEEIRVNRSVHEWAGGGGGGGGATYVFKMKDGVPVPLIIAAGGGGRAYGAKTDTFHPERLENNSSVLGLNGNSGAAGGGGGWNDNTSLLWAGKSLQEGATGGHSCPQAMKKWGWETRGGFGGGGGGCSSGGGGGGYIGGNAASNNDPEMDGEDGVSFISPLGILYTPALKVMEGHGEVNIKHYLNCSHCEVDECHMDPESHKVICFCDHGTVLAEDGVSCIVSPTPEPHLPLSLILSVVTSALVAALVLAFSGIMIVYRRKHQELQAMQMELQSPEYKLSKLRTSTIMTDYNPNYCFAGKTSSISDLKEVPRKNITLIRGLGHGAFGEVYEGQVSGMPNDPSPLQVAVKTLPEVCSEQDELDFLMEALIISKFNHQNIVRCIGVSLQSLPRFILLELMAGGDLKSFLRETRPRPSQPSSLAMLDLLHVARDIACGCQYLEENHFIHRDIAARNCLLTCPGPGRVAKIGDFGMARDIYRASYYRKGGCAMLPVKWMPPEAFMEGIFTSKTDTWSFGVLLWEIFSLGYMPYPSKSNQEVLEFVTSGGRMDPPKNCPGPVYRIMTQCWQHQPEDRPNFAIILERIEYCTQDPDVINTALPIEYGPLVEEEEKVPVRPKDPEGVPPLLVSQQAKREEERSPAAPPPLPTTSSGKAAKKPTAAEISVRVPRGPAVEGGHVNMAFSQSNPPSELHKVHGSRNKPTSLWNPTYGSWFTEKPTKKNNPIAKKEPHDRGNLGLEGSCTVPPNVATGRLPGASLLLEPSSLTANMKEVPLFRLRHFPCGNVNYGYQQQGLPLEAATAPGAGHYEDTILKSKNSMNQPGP
- Assay Text: Kinase inhibitory activity, isotopic labeling (γ-33P-ATP)
- Format: biochemical
- Run Conditions: compound at 10 μM
Write the numeric value and follow it with the unit.

Illustrative cases are given below, each with its answer.
In [3]: df
Out[3]:
                                   molecule  reported_value
0  CN1CCN(c2ccc(Nc3ncc4nc(Nc5ccccc5)n(C5CC5)c4n3)cc2)CC1 [Compounds 8-23]              3%
1  CC(C)n1c(Nc2ccc(F)c(Cl)c2)nc2cnc(Nc3ccc(C(=O)NN4CCN(C)CC4)cc3)nc21 [Compound 8-2]             63%
2  CN1CCN(c2ccc(Nc3ncc4nc(Nc5ccccc5)[nH]c4n3)cc2)CC1 [Compounds 8-25]             13%
3  CC(C)n1c(Nc2ccccc2)nc2cnc(Nc3ccc(C(=O)NC4CCN(C)CC4)cc3)nc21 [Compounds 8-9]             36%
4  CN1CCN(c2ccc(Nc3ncc4nc(Nc5ccccc5)n(C5CCCC5)c4n3)cc2)CC1 [Compounds 8-26]             71%

Entry under test: CC(C)n1c(Nc2ccc(F)c(Cl)c2)nc2cnc(Nc3ccc(N4CCN(C)CC4)cc3)nc21 [Compounds 8-13] . Its The kinase activity inhibitory rate (%) by the tested compounds at 10 μM ALK was 78%

Field The kinase activity inhibitory rate (%) by the tested compounds at 10 μM ALK (entry CN1CCN(c2ccc(Nc3ncc4nc(Nc5ccccc5)n(C)c4n3)cc2)CC1 [Compounds 8-24] ) reads 8%

Lab note: CC(C)n1c(Nc2ccc(OCc3cccc(F)c3)c(Cl)c2)nc2cnc(Nc3ccc(N4CCN(C)CC4)cc3)nc21 [Compounds 8-19] gave The kinase activity inhibitory rate (%) by the tested compounds at 10 μM ALK of 90%

----------
- Test system: non-small cell lung carcinoma cell strain H1975 (EGFR L858R/T790M mutation)
- Assay Text: In-vitro tumor cell proliferation inhibition, MTT
- Type: cell-based, human
- Run Conditions: 72 hours
pIC50: −log10 of the molar value.
pIC50 by entry:

                                     smiles                         system_under_test  reported_value
0  CN1CCN(c2ccc(Nc3ncc4nc(Nc5cccc(F)c5)n(C5CCCC5)c4n3)cc2)CC1  non-small cell lung carcinoma cell strain H1975 (EGFR L858R/T790M mutation)            6.51
1  COc1ccc(Nc2nc3cnc(Nc4ccc(N5CCN(C)CC5)cc4)nc3n2C(C)C)cc1  non-small cell lung carcinoma cell strain H1975 (EGFR L858R/T790M mutation)          < 5.00
2  CN1CCN(c2ccc(Nc3ncc4nc(Nc5cc(Cl)c(Cl)cc5Cl)n(C5CCCC5)c4n3)cc2)CC1  non-small cell lung carcinoma cell strain H1975 (EGFR L858R/T790M mutation)          < 5.00
3  CC(C)n1c(Nc2cccc(Br)c2)nc2cnc(Nc3ccc(N4CCN(C)CC4)cc3)nc21  non-small cell lung carcinoma cell strain H1975 (EGFR L858R/T790M mutation)            5.76
4  COCCOc1ccc(Nc2ncc3nc(Nc4ccccc4)n(C4CCCC4)c3n2)cc1  non-small cell lung carcinoma cell strain H1975 (EGFR L858R/T790M mutation)          < 5.00
5  CN1CCN(c2ccc(Nc3ncc4nc(Nc5ccccc5)n(C)c4n3)cc2)CC1  non-small cell lung carcinoma cell strain H1975 (EGFR L858R/T790M mutation)          < 5.00

Field pIC50 (non-small cell lung carcinoma cell strain H1975 (EGFR L858R/T790M mutation)), entry "Cc1cccc(Nc2nc3cnc(Nc4ccc(N5CCN(C)CC5)cc4)nc3n2C2CCCC2)c1" : 6.26

Let me check: "CC(C)n1c(NC2CCCCC2)nc2cnc(Nc3ccc(N4CCN(C)CC4)cc3)nc21" , system non-small cell lung carcinoma cell strain H1975 (EGFR L858R/T790M mutation), measured pIC50 is < 5.00

----------
- System Under Test: VEGFR2 (Homo sapiens (Human))
- Assay Text: Kinase inhibitory activity, isotopic labeling (γ-33P-ATP)
- Type: biochemical
- Run Conditions: ATP 90 μM (Km)
Measurement Type: IC50

Please review the following examples before continuing.
In [3]: df
Out[3]:
                                     smiles              system_under_test  reported_value
0  C#Cc1cccc(Nc2nc3cnc(Nc4ccc(N5CCN(C)CC5)cc4)nc3n2C(C)C)c1  VEGFR2 (Homo sapiens (Human))         0.05 µM
1  CN1CCN(c2ccc(Nc3ncc4nc(Nc5ccccc5)n(C5CC5)c4n3)cc2)CC1  VEGFR2 (Homo sapiens (Human))          > 1 µM
2  CC(C)n1c(Nc2cccc(C(F)(F)F)c2)nc2cnc(Nc3ccc(N4CCN(C)CC4)cc3)nc21  VEGFR2 (Homo sapiens (Human))          > 1 µM
3  CC(C)n1c(Nc2cccc(Br)c2)nc2cnc(Nc3ccc(N4CCN(C)CC4)cc3)nc21  VEGFR2 (Homo sapiens (Human))         0.14 µM
4  CN1CCN(c2ccc(Nc3ncc4nc(Nc5ccccc5)n(C)c4n3)cc2)CC1  VEGFR2 (Homo sapiens (Human))          > 1 µM
5  CC(C)n1c(Nc2ccccc2)nc2cnc(Nc3ccc(C(=O)NC4CCN(C)CC4)cc3)nc21  VEGFR2 (Homo sapiens (Human))          > 1 µM
6  COc1cccc(Nc2nc3cnc(Nc4ccc(N5CCN(C)CC5)cc4)nc3n2C(C)C)c1  VEGFR2 (Homo sapiens (Human))          > 1 µM

Per the record, "CN1CCN(c2ccc(Nc3ncc4nc(Nc5ccccc5)n(C5CCCC5)c4n3)cc2)CC1" has IC50 of 0.007 µM
